- System: Escherichia coli
- test-summary: Antibacterial activity against Escherichia coli ATCC 25922 measured after 24 hrs
- Assay type: functional
- experimental-conditions: ATCC 25922, 24 h
Where a SMILES comes first, the peptide text is derived from it.
property-measured: MIC

| compound | recorded-measurement |
| --- | --- |
| CC[C@H](C)[C@@H]1NC(=O)[C@H](Cc2ccccc2)NC(=O)[C@@H]2CCCN2C(=O)[C@H](Cc2ccccc2)NC(=O)[C@@H]2CCCN2C(=O)[C@H](CCC(N)=O)NC(=O)[C@@H]2CCCN2C(=O)[C@H](Cc2ccccc2)NC1=O [PHAKELLI STATIN 11] (HELM PEPTIDE1{F.I.F.P.Q.P.F.P}$PEPTIDE1,PEPTIDE1,1:R1-8:R2$$$V2.0) | > 128 µM |

For each of the compounds below, note its MIC.
1. CC[C@H](C)[C@@H]1NC(=O)[C@H](C)NC(=O)[C@H](CC(C)C)NC(=O)[C@@H]2CCCN2C(=O)[C@H](CC(=O)O)NC(=O)[C@H](Cc2ccc(O)cc2)NC(=O)[C@@H]2CCCN2C1=O (HELM PEPTIDE1{A.I.P.Y.D.P.L}$PEPTIDE1,PEPTIDE1,1:R1-7:R2$$$V2.0)
2. CC[C@H](C)[C@@H]1NC(=O)[C@@H]2CCCN2C(=O)[C@H](Cc2ccccc2)NC(=O)[C@@H]2CCCN2C(=O)[C@H](Cc2ccc(O)cc2)NC(=O)[C@@H]2CCCN2C(=O)[C@H]([C@@H](C)CC)NC1=O [PHAKELLISTATIN 2] (HELM PEPTIDE1{F.P.I.I.P.Y.P}$PEPTIDE1,PEPTIDE1,1:R1-7:R2$$$V2.0)

A:
["> 128 µM", "> 128 µM"]
